Assign pIC50 to each entry below.
- EXPERIMENTAL_SYSTEM: human DGAT2 (Homo sapiens)
- Construct: FLAG (DYKDDDDK); membrane fraction used
- Sequence (Q96PD7 whole entry): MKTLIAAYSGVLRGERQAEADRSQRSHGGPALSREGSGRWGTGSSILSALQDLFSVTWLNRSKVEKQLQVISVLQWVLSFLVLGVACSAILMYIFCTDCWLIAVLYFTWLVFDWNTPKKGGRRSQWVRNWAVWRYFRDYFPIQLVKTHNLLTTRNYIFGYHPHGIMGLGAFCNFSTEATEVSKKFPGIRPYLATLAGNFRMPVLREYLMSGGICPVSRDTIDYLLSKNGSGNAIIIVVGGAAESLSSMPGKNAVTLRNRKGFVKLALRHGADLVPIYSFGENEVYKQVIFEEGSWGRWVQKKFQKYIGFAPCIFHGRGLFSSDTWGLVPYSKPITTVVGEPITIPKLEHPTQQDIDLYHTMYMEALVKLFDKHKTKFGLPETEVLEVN
- ASSAY_SUMMARY: DGAT2 enzyme activity inhibition, Phospholipid FlashPlate SPA
- EXPERIMENTAL_CONDITIONS: recombinant human DGAT2 membrane protein from Sf-21 cells; inhibition of [14C]-TG production; 37° C.
Give only the number. pIC50 is defined as minus log10 of concentration in molar units.

In one line, give reported pIC50 of the entry `CCOc1cccnc1O[C@@H]1CCCN(c2cncc(Nc3cccc(Oc4ccc(C(C)(C)C(=O)O)cc4)n3)n2)C1` . 6.64

In one line, give reported pIC50 of the entry `CCOc1cccnc1O[C@@H]1CCCN(c2cncc(Nc3cccc(-c4cc(CC(C)(C)C(=O)O)ccc4F)n3)n2)C1` . 6.57

In one line, give reported pIC50 of the entry `CCOc1ccccc1O[C@@H]1CCCN(c2cncc(Nc3cccc(-c4cc(CC(C)(C)C(=O)O)ccc4F)n3)n2)C1` . 6.54
